Assign IC50 to each entry below.
Target: AChE from electric eel (Electrophorus electricus)
Construct: purchased Sigma (St. Louis, USA)
Sequence (O42275 24-633): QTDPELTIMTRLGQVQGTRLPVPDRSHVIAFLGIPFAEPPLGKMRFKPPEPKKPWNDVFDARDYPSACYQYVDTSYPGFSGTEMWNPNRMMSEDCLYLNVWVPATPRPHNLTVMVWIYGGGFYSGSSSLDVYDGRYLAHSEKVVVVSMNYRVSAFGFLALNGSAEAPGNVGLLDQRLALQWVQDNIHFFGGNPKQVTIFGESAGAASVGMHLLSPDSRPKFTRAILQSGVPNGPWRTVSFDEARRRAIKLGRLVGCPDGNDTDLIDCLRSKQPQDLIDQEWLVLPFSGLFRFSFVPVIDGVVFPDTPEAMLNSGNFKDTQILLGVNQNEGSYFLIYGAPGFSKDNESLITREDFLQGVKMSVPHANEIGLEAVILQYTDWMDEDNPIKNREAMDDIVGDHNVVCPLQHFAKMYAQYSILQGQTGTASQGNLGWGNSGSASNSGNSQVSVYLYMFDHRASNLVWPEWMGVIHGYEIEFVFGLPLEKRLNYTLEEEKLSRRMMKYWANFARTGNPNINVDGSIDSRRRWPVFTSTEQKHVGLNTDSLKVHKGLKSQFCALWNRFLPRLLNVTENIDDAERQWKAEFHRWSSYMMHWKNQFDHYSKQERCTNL
Test: Quantitative colorimetric microplate assay based on Ellman's method for AChE inhibitory activity
Type: biochemical
Conditions: n=3, 25°C, 10 min incubation, tested 1.56 to 200 μg/mL, read-out: IC50, inhibition of AchE (converted)
Provide the reading as a plain figure in µM.

**Query** For the compound shown here, CC(C)=CCC/C(C)=C/CC/C(C)=C/Cc1c(O)c2ccc(O)cc2oc1=O , give the reported IC50.
**Result** 201

**Query** Fill in the blank: the reported IC50 of CC(C)=CCC/C(C)=C/CC/C(C)=C/CCC(=O)c1ccc(O)cc1O is ____.
**Result** 23.4

**Query** Can you look up the measured IC50 of C=C[C@]1(C)CC[C@H]([C@@H](C)C(=O)[C@H](O)C=C(C)C)C12C(=O)Oc1cc(OC)ccc1C2=O (stereo partly shown) for me?
**Result** 236

**Query** // IC50 lookup, key: C=C[C@]1(C)CC[C@@H](C(C)C(O)C(=O)C=C(C)C)C12C(=O)Oc1cc(OC)ccc1C2=O (stereo partly shown)
**Result** 181
